Experimental Target: human TLR7 (Homo sapiens, UniProt Q9NYK1)
Sequence (Q9NYK1 27-1049): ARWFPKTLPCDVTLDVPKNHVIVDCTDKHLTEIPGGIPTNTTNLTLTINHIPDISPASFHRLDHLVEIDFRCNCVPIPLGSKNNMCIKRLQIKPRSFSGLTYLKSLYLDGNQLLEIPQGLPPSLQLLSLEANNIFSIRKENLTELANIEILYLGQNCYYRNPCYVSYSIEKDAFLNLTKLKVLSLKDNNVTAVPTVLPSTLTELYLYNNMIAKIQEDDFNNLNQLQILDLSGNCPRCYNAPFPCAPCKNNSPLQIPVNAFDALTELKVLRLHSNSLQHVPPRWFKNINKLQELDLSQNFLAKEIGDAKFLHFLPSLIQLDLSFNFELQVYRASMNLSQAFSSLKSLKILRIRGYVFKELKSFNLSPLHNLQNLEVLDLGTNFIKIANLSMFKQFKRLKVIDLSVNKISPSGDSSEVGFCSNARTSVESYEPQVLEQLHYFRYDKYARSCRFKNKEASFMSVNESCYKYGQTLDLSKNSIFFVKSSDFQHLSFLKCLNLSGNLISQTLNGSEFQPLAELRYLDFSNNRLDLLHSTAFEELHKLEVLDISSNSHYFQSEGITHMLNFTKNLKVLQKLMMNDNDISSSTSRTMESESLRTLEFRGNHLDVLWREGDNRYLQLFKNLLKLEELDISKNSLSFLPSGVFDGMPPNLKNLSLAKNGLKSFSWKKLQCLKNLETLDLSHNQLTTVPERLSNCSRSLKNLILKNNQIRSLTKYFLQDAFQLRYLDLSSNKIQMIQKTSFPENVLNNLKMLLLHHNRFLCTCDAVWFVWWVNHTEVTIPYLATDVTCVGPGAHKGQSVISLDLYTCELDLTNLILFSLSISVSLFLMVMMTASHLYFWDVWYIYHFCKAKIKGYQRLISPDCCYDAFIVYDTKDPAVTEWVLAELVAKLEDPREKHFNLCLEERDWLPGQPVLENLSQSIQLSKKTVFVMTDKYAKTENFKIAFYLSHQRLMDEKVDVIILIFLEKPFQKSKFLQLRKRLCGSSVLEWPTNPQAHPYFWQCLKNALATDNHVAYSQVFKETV
Assay Overview: TLR7 inhibition reporter assay (HEK-Blue cells, SEAP reporter, gardiquimod stimulation)
Condition Label: HEK-Blue cells overexpressing human TLR7, SEAP reporter, gardiquimod 7.5 μM
Source text: TLR7/8/9 Inhibition Reporter Assays HEK-Blue™-cells (Invivogen) overexpressing human TLR7, TLR8 or TLR9 receptors were used for screening inhibitors of these receptors using an inducible SEAP (secreted embryonic alkaline phosphatase) reporter gene under the control of the IFN-β minimal promoter fused to five NF-κB and AP-1-binding sites. […]
pIC50: −log10 of the molar value.
Readout Label: pIC50

Query: pIC50; subject: Cc1cn2cc(-c3[nH]c4ccc(C5CCN(C(C)C)CC5)cc4c3C(C)C)ccc2n1 [Example 945] > 7.00

Query: pIC50; subject: CC(C)c1c(-c2cc(C(C)(C)O)c3nccn3c2)[nH]c2ccc(C3CCN(CC(=O)N(C)C)CC3)cc12 [Example 343] > 7.00

Query: pIC50; subject: Cc1c(-c2ncnn3cccc23)[nH]c2ccc(C3CCN(C4CCN(C(C)C)CC4)CC3)cc12 [Example 806] 4.30 to 6.00

Query: pIC50; subject: Cc1cn2cc(-c3[nH]c4ccc(C5CCN(C(C)C)CC5)cc4c3C(C)C)cc(C(F)(F)F)c2n1 [Example 943] > 7.00

Query: pIC50; subject: Cc1cc(-c2[nH]c3ccc(C4CCN(CC(=O)N(C)C)CC4)cc3c2C(C)C)cc2ocnc12 [Example 291] > 7.00

Query: pIC50; subject: CC(C)c1c(-c2ccnc3[nH]ncc23)[nH]c2cc(F)c(C3CCN(CC4CCN(C(C)C)CC4)CC3)cc12 [Example 966] > 7.00

Query: pIC50; subject: CC(C)c1c(-c2ccc3cnnn3c2)[nH]c2ccc(C3CCN(CC(=O)N(C)C)CC3)cc12 [Example 299] 6.00 to 7.00

Query: pIC50; subject: CC(C)c1c(-c2ccn3nnnc3c2)[nH]c2ccc(C3CCNCC3)cc12 [Example 82] > 7.00

Query: pIC50; subject: CC(C)c1c(-c2ccnc3[nH]ncc23)[nH]c2ccc(C3CCN(Cc4cn(C)cn4)CC3)cc12 [Example 906] > 7.00

Query: pIC50; subject: CC(C)c1c(-c2n[nH]c3ncccc23)[nH]c2ccc(C3CCNCC3)cc12 [Example 18] > 7.00

Query: pIC50; subject: Cc1cc2cc(-c3[nH]c4ccc(C5CCNCC5)cc4c3C(C)C)cc(CC(C)C)n2n1 [Example 144] < 5.51

Query: pIC50; subject: CC(C)c1c(-c2ccnc3[nH]ncc23)[nH]c2ccc(C3CCN(Cc4ccc(N5CCCC5)cc4)CC3)cc12 [Example 905] 6.00 to 7.00

Query: pIC50; subject: COC(=O)c1c(-c2ccnc3[nH]ncc23)[nH]c2ccc(C3CCNCC3)cc12 [Example 174] < 4.30

Query: pIC50; subject: CCOc1cc(-c2[nH]c3ccc(C4CCNCC4)cc3c2C(C)C)cc2ncnn12 [Example 157] > 7.00

Query: pIC50; subject: Cc1cc2nc(-c3[nH]c4ccc(C5CCN(CC(=O)N(C)C)CC5)cc4c3C(C)C)c(F)cn2n1 [Example 438] 6.00 to 7.00

Query: pIC50; subject: CC(C)c1c(-c2ccnc3[nH]ncc23)[nH]c2ccc(C3CCN(C(=O)CN(C)C)CC3)cc12 [Example 449] > 7.00

Query: pIC50; subject: CC(C)c1c(-c2ccnc3[nH]ncc23)[nH]c2ccc(C3CCN(C4CCOCC4)CC3)cc12 [Example 682] > 7.00

Query: pIC50; subject: CC(C)c1c(-c2ccc3scnc3c2)[nH]c2ccc(C3CCNCC3)cc12 [Example 12] 6.00 to 7.00

Query: pIC50; subject: Cc1c(-c2ccnc3[nH]ccc23)[nH]c2ccc(C3CCN(C4CCN(CC(C)C)CC4)CC3)cc12 [Example 812] > 7.00

Query: pIC50; subject: Cc1cc(-c2[nH]c3ccc(C4CCN(C(=O)C[C@H](C)O)CC4)cc3c2C(C)C)cc2ncnn12 [Example 600] > 7.00

Query: pIC50; subject: CC(C)c1c(-c2ccc(C#N)c3ncccc23)[nH]c2ccc(C3CCN(CC(C)(C)O)CC3)cc12 [Example 766] > 7.00

Query: pIC50; subject: CC(=O)N[C@H]1CCN(CC(=O)N2CCC(c3ccc4[nH]c(-c5ccnc6[nH]ncc56)c(C(C)C)c4c3)CC2)C1 [Example 581] > 7.00

Query: pIC50; subject: Cc1c(-c2ncnc3[nH]cnc23)[nH]c2ccc(C3CCN(C4CCN(C(C)C)CC4)CC3)cc12 [Example 815] 4.30 to 6.00

Query: pIC50; subject: Cc1c(-c2[nH]c3ccc(C4CCN(CC(C)(C)O)CC4)cc3c2C(C)C)ccc2c1cnn2C [Example 763] > 7.00

Query: pIC50; subject: CCc1c(-c2ccnc3[nH]ncc23)[nH]c2ccc(C3CCN(C(C)C)CC3)cc12 [Example 957] 6.00 to 7.00

Query: pIC50; subject: COc1cc(-c2[nH]c3ccc(C4CCNCC4)cc3c2C(C)C)cc2ncnn12 [Example 158] > 7.00

Query: pIC50; subject: CC(C)c1c(-c2ccnc3[nH]ncc23)[nH]c2ccc(C3CCN(CC(C)(C)CN(C)C)CC3)cc12 [Example 847] > 7.00
